Sourced from PubChem BioAssay (EPA / NIEHS)

# measuredTarget: Cellular tumor antigen p53 (Homo sapiens) (UniProt P04637)
# Sequence (P04637 whole entry, looked up): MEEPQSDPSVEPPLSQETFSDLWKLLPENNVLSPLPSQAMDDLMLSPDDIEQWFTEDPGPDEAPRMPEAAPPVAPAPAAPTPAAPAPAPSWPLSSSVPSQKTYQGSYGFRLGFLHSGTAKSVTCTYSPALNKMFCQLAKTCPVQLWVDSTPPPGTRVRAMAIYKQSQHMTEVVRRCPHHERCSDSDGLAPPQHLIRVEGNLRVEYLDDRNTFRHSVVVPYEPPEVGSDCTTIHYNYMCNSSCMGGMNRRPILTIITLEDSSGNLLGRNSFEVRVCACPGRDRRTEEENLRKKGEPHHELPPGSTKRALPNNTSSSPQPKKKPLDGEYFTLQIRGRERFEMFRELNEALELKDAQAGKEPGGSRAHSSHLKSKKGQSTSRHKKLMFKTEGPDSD
# experimentDescription: TOX21_p53_BLA_p3_ratio: Tox21 HCT-116 p53 Agonism Beta-lactamase Assay, Ratio, Phase 3 (AID 2283596)
# Protocol: TOX21_p53_BLA_p3 is a cell-based, single-readout assay that uses HCT116, a human intestinal cell line, […] in a 1536-well plate.TOX21_p53_BLA_p3_ratio is an assay readout measuring reporter gene via receptor activity and designed using inducible reporter (beta lactamase induction) detected with GAL4 b-lactamase reporter gene. […] This assay endpoint, TOX21_p53_BLA_p3_ratio, was analyzed in the positive analysis fitting direction relative to DMSO as the negative control and baseline of activity. […]
Records with an inconclusive call do not appear. The source made the active and inactive calls. The calls were made as follows: active = hit-call score of the fitted dose curve at least 0.9, where 1 is the maximum; inconclusive = response in the unintended direction; inactive = score below 0.9.
// allowed return values: yes (1) for active, no (0) for inactive

Enquiry: Please state the recorded outcome for this compound: CC(=O)OC(C)c1ccccc1 (centres undefined)
Return: no (0)

Enquiry: Please state the recorded outcome for this compound: `CCCCCCCCCCCCc1ccc(O)cc1`
Return: yes (1)

Enquiry: Please state the recorded outcome for this compound: C=CC(C)(O)CC/C=C(\C)CC (centres undefined)
Return: no (0)

Enquiry: Please state the recorded outcome for this compound: `Fc1ccc(Br)cc1`
Return: no (0)

Enquiry: Please state the recorded outcome for this compound: CC1CCC(C(C)(C)S)C(=O)C1 (centres undefined)
Return: no (0)

Enquiry: Please state the recorded outcome for this compound: `O=C1CCCCCCCCCCCN1`
Return: no (0)

Enquiry: Please state the recorded outcome for this compound: `CCC[Si](OC)(OC)OC`
Return: no (0)

Enquiry: Please state the recorded outcome for this compound: `CC1(C)CCC[C@]2(C)[C@H]3CC(=O)O[C@]3(C)CC[C@@H]12`
Return: no (0)

Enquiry: Please state the recorded outcome for this compound: CCCCC1CCC(=O)O1 (centres undefined)
Return: no (0)

Enquiry: Please state the recorded outcome for this compound: `CCOC(=O)C1=NOC(c2ccccc2)(c2ccccc2)C1`
Return: no (0)

Enquiry: Please state the recorded outcome for this compound: `CC(C)(C)C1CCC(=O)CC1`
Return: no (0)

Enquiry: Please state the recorded outcome for this compound: C=C(C)C1CC=C(C)C(OC(C)=O)C1 (centres undefined)
Return: no (0)

Enquiry: Please state the recorded outcome for this compound: `CCCC/C=C/C=C\C=O`
Return: no (0)

Enquiry: Please state the recorded outcome for this compound: `CC(CC(C)C)=NO`
Return: no (0)

Enquiry: Please state the recorded outcome for this compound: `Cc1cc(C)n(CO)n1`
Return: no (0)

Enquiry: Please state the recorded outcome for this compound: `C[Si](C)(C)N[Si](C)(C)C`
Return: no (0)

Enquiry: Please state the recorded outcome for this compound: `O=C(C=Cc1ccccc1)OCCc1ccccc1`
Return: no (0)

Enquiry: Please state the recorded outcome for this compound: `CN(C)Cc1cc(CN(C)C)c(O)c(CN(C)C)c1`
Return: no (0)

Enquiry: Please state the recorded outcome for this compound: `C=C(C)C(=O)OCCCCCCCCCCCC`
Return: no (0)

Enquiry: Please state the recorded outcome for this compound: `C=CCCCCCCCCO`
Return: no (0)

Enquiry: Please state the recorded outcome for this compound: `Cc1ccc(S(=O)(=O)N=C=O)cc1`
Return: no (0)

Enquiry: Please state the recorded outcome for this compound: `C=C[Si](OCCOC)(OCCOC)OCCOC`
Return: no (0)

Enquiry: Please state the recorded outcome for this compound: `CC(C)[N+](C)(CCOC(=O)C1c2ccccc2Oc2ccccc21)C(C)C`
Return: no (0)

Enquiry: Please state the recorded outcome for this compound: `CCc1cccc(C)c1N`
Return: no (0)
